All figures here come from PubChem BioAssay (EPA / NIEHS).

- TEST PROTOCOL: CPHEA_Stoker_NIS_Cytotoxicity: Cytotoxicity Assessment for CPHEA's Radioactive Iodide Uptake (RAIU) Assay for Sodium/Iodide Symporter (NIS) Inhibition, Stoker and Laws Labs (AID 2283897);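 for AC50: active means loss of ATP signal versus DMSO meaning cytotoxicity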
Calls of active or inactive are those of the source. Rule for the calls: active = hit-call score of the fitted dose curve at least 0.9, where 1 is the maximum; inconclusive = response in the unintended direction; inactive = score below 0.9.
PARAMETER MEASURED: AC50

See these solved cases before continuing.
# MOLECULE, OBSERVED RESULT
rows = [
    ("NCc1cccc(C2CCN(C(=O)c3ccc(C#Cc4ccccc4F)o3)CC2)c1", "16.3 µM (active)"),
    ("OC12N=C(c3ccccc3)SC1Cc1cc(Cl)ccc12 (stereo unspecified)", "inactive"),
    ("O=C(Nc1ccc(Cl)cc1)Nc1ccc(Cl)c(Cl)c1", "inactive"),
    ("CCCCCCCCCCCC[N+](C)(C)C", "inactive"),
    ("CCOC(=O)O[C@H](C)OC(=O)c1ccc2c(c1)cc(C(=O)NC1CCN(C(C)C)CC1)n2Cc1cc(-c2ccc(Cl)s2)on1", "9.92 µM (active)"),
]

Let us move to another entry and its AC50.
Note AC50 for the molecule shown: Clc1cc(Cl)c2c(c1)N=C1CCCCCN1C2
inactive
